Origin of the recorded values: PubChem BioAssay (NCI)

The following compounds are listed with their measured growth values.
# Test system: MALME-3M melanoma
# PROTOCOL_SUMMARY: NCI-60 one-dose screen, 48 h (100 = growth as untreated, 0 = no growth, -100 = all killed)
# CONDITIONS: 10 µM unless noted
The panel holds about 83,000 compounds, 20% with a hit somewhere; the sample as a whole holds those more often.

COMPOUND: CCN1CCN(c2ccc(Nc3ncc4ccc5ncn(C(C)C)c5c4n3)nc2)CC1
growth, %: -34

COMPOUND: c1ccc2cc(-c3n(Cc4ccc5ccccc5n4)c4ccccc4[n+]3Cc3ccc4ccccc4n3)ccc2c1
growth, %: -32.9

COMPOUND: CCN(CC)c1ccc2c(c1)OS(=O)(=O)N=C2
growth, %: 98.1

COMPOUND: O=C1N/C(=C\c2ccccc2)c2ncccc21
growth, %: 95.2

COMPOUND: COc1ccc(-n2ncc3c4nc(OC)c(S(=O)(=O)c5ccccc5)cc4ccc32)cc1
growth, %: 56.9

COMPOUND: CCCCCCCC/C=C\CCCCCCCCOc1cccc(CC(=O)NCC[N+]2(C)CCCC2)c1
growth, %: 88.9

COMPOUND: O=C1c2[nH]cc(CN[C@@H]3CCCN3)c2C(=O)c2c1c(O)c1ccccc1c2O
growth, %: -51.9

COMPOUND: Cc1nc2cc(Nc3nc(Nc4ccc(F)cc4)nc(N4CCN(C)CC4)n3)ccc2n1Cc1ccccc1
growth, %: -83.4

COMPOUND: COC(=O)[C@@]12CC[C@@H](C)[C@]3(C[C@@H](c4ccoc4)OC3=O)[C@H]1CC[C@@H]1O[C@@]12C
growth, %: 101

COMPOUND: O=C(CCc1nnc2sc(/C=C\c3ccccc3)nn12)c1nc2ccccc2[nH]1
growth, %: 93.8

COMPOUND: COc1ccc(-c2nc(Nc3ccc(F)cc3)nc(Nc3ccc4c(c3)nc(C)n4Cc3ccccc3)n2)cc1
growth, %: 52.8

COMPOUND: O=C1/C(=C/c2ccc(Oc3ccccc3)cc2)N=C(c2ccccc2)N1CCc1cccs1
growth, %: 86.1

COMPOUND: CC(C)NCC(O)COc1ccc(CCOCC2CC2)cc1 (stereo unspecified)
growth, %: 103

COMPOUND: COc1ccc(OC2=CC(=O)c3ccc(C)nc3C2=O)cc1
growth, %: 128

COMPOUND: COC(=O)C1C2CC3c4[nH]c5cc(OC)ccc5c4CCN3CC2CC(OC2CCCCO2)C1OC (stereo unspecified)
growth, %: 104

COMPOUND: CC(=O)Nc1ccc(Sc2ccc([N+](=O)[O-])o2)cc1
growth, %: -16.5

COMPOUND: C[C@H]1C(=O)C23CCC1C[C@@]21O[C@@H]2C(C)(C)C=CC(=O)C23COC1=O
growth, %: 110

COMPOUND: O=C(O)CCN1CCN(c2cccc(Cl)c2)CC1
growth, %: 107

COMPOUND: CC1(C)N=C(N)N=C(N)N1c1cccc(/C=C/C=C/c2cccc([N+](=O)[O-])c2)c1
growth, %: 66.3

COMPOUND: O=C(Nc1ccccc1)Oc1cccc2cccnc12
growth, %: 108

COMPOUND: Nc1nc(-c2ccnc(Cl)c2)nn1-c1nc2ccccc2s1
growth, %: 97.3

COMPOUND: Clc1nc(-c2ccccn2)nc2sc3c(c12)CCCCCC3
growth, %: 94.2

COMPOUND: CCCCCCCCCCCC(=O)[O][Sn]([CH2]CCC)([CH2]CCC)[CH2]CCC
growth, %: -96.1

COMPOUND: CCOC(=O)c1cc2c(n(C)c1=O)-c1cnn(-c3ccc(OC)cc3)c1CC2
growth, %: 95.1

COMPOUND: CCCCc1ccc(NC(=O)C(F)(F)F)cc1
growth, %: 140

COMPOUND: Nc1nc(N)c(C=Nc2ccc(Br)cc2)c(Nc2ccc(Br)cc2)n1
growth, %: 119

COMPOUND: COc1ccccc1/C=C/C(=O)/C=C/c1ccccc1O
growth, %: -3.21

COMPOUND: O=[N+]([O-])c1cc2c(cc1Br)-c1ccccc1C2
growth, %: 110

COMPOUND: CC(C)(C)[Si](C)(C)OC1[C@@H](CNC(=O)NC(=O)CCl)O[C@@H](n2cnc3c(N)ncnc32)[C@H]1O[Si](C)(C)C(C)(C)C (stereo partly specified)
growth, %: -67.3

COMPOUND: O=C1c2ccccc2-c2nnc(-c3ccc(Br)cc3)cc21
growth, %: -3.82

COMPOUND: NC(=S)N/N=C1\c2ccccc2-c2c(F)c(F)c(F)c(F)c21
growth, %: 73.6

COMPOUND: c1ccc(-c2nc(N3CCOCC3)c3c4c(sc3n2)CCCCCC4)nc1
growth, %: 58.4

COMPOUND: Cc1ccc2c(c1)c(Sc1ccc(C(=O)NO)cc1)c1n2CN(C)CC1
growth, %: 26.6

COMPOUND: CC1=CN2C(=NC3=C(CCCC/C3=C\c3ccccc3)C2c2ccccc2)S1 (stereo unspecified)
growth, %: 89

COMPOUND: Cc1cccc2c(=O)c3c(sc12)c(NCCCN)nc1ccccc13
growth, %: 13.9

COMPOUND: COc1ccc(-c2c3c(N)c4c(nc3nc3c2c(C)nn3-c2ccccc2)CCCC4)cc1
growth, %: 113

COMPOUND: Cc1nc2cc(Nc3nc(Nc4ccc(F)cc4)nc(N4CCCC4)n3)ccc2n1Cc1ccccc1
growth, %: -61.6

COMPOUND: CC1=C(C/C=C(\C)CCC[C@H](C)CCC[C@H](C)CCCC(C)C)C(=O)c2ccccc2C1=O
growth, %: 102

COMPOUND: CC(C)(C)[Si](C)(C)OC1[C@@H](O[Si](C)(C)C(C)(C)C)[C@@H](CNC(=O)NC(=O)C(F)(F)F)O[C@H]1n1cnc2c(NC(=O)Nc3ccccc3)ncnc21 (stereo partly specified)
growth, %: 74.8

COMPOUND: COc1ccc(C2SC(C)C(=O)N2CCc2cccs2)cc1OC (stereo unspecified)
growth, %: 119

COMPOUND: COc1ccc(/C=N/NC(=O)c2cnn3c2NC(c2ccccc2)C3)cc1OC1CCCC1 (stereo unspecified)
growth, %: 123
